Where do the numbers come from? From the CheMixHub viscosity set.

Assay: xn = mol fraction of the nth substance listed
Details: 308.15 K; 103 kPa; x1 = 0.5
± gives the uncertainty stated by the source.
Task for the reader: assign each of the following molecules its reported viscosity.

The recorded viscosity for entry C[Si]1(C)O[Si](C)(C)O[Si](C)(C)O[Si](C)(C)O1 + CCCCCCCCCCCCC equals 1.375 ± 0.042 mPa·s

Lab book: viscosity of C[Si]1(C)O[Si](C)(C)O[Si](C)(C)O[Si](C)(C)O1 + CCCCCCCCCCCCCC noted as 1.507 ± 0.042 mPa·s

Entry C[Si]1(C)O[Si](C)(C)O[Si](C)(C)O[Si](C)(C)O1 + CCCCCCCCCCCC ; viscosity = 1.251 ± 0.041 mPa·s

Sure, the documented viscosity for C[Si]1(C)O[Si](C)(C)O[Si](C)(C)O[Si](C)(C)O1 + CCCCCCCCCC is 1.006 ± 0.041 mPa·s
